A collection of molecules and their measured GI50
# Test system: HS 578T breast
# measurementNotes: NCI tumour cell line growth inhibition, 48 h

Here are 2 molecules together with their reported answers.
chemicalStructure: CN1CCC(C(=O)Nc2n[nH]c3nnc(-c4ccccc4)cc23)CC1
attributeMeasured: GI50
measured: 16.5 µM

chemicalStructure: Nc1nc2c([nH]1)c1[nH]c3ccccc3c1c1[nH]c3ccccc3c21
attributeMeasured: GI50
measured: 20.4 µM

Next:
Which GI50 value is on record for `COc1cc(C(=O)Nc2ccc(-c3nc4ccccc4[nH]3)cc2)cc(OC)c1OC` ? 3.54 µM

====

# Test system: SNB-78 CNS
# measurementNotes: NCI tumour cell line growth inhibition, 48 h
The compounds listed here are annotated with their TGI.

compound: Cc1cccc(NC(=O)CSc2nnc(-c3ccc(N=Cc4ccc(Cl)cc4)cc3)o2)c1
measured: > 100 µM
--
compound: NC(=O)N1N=C2c3ccccc3OC[C@H]2[C@@H]1c1ccccc1
measured: > 95.3 µM

Field: next compound
What value of measured TGI is listed for Cc1cc2nc3c(C(OC4OC(CO)C(O)C(O)C4O)C(O)CO)nn(-c4ccc(F)cc4)c3nc2cc1C (stereo not drawn) ? > 100 µM
